biological target: T1, human TRBC1 (hTRBC1), construct BIM0443 (human, UniProt P01850 1-129, limits assumed); assay: SPR (BIAcore T200), antibody captured via anti-human Fc on CM5, hTRBC1 BIM0443 injected 15.6-500 nM, 1:1 fit
T1 construct: also called Human TRBC1 (BIM0443); BIM0443 (hTRBC1)
T1 sequence (P01850 1-129 limits assumed): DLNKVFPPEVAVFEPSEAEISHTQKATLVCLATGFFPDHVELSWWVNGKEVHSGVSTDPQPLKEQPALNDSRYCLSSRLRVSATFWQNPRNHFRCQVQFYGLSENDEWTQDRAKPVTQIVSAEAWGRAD
Kd by entry:
Field: numeric (nM). Do not append units.

I have this binder here, BKM0193 (single arm) (antibody, V domains shown, Single arm anti-TRBC1 construct with human Fc; also called G29A T31A) VH: QVQLVQSGAEVKKPGSSVKVSCKASGYTFTGYVMHWVRQAPGQGLEWMGFIIPIFGTANYAQKFQGRVTITSDKSTTTAYMELSSLRSEDTAVYYCARGAGYNFDGAYRFFDFWGQGTLVTVSS VL: DVVMTQSPLSLPVTLGQPASISCRSSQRLVHSNANAYLHWYQQRPGQSPRLLIYRVSNRFPGVPDRFSGSGSGTDFTLKISRVEAEDVGVYFCSQSTHVPYTFGGGTKVEIK , and I need its recorded Kd.
360

Find the recorded Kd belonging to BIM0460 (bivalent) (antibody, V domains shown, Bivalent construct with a human Fc (captured via anti-human Fc antibody)) VH: QVQLVQSGAEVKKPGSSVKVSCKASGYTFTGYVMHWVRQAPGQGLEWMGFINPYNDDIQSNERFRGRVTITSDKSTTTAYMELSSLRSEDTAVYYCARGAGYNFDGAYRFFDFWGQGTLVTVSS VL: DVVMTQSPLSLPVTLGQPASISCRSSQRLVHSNGNTYLHWYQQRPGQSPRLLIYRVSNRFPGVPDRFSGSGSGTDFTLKISRVEAEDVGVYFCSQSTHVPYTFGGGTKVEIK and report it.
10

Read the next record carefully.
Which measured Kd value corresponds to BKM0194 (single arm) (antibody, V domains shown, Single arm anti-TRBC1 construct with human Fc; also called N28G) VH: QVQLVQSGAEVKKPGSSVKVSCKASGYTFTGYVMHWVRQAPGQGLEWMGFIIPIFGTANYAQKFQGRVTITSDKSTTTAYMELSSLRSEDTAVYYCARGAGYNFDGAYRFFDFWGQGTLVTVSS VL: DVVMTQSPLSLPVTLGQPASISCRSSQRLVHSGGNTYLHWYQQRPGQSPRLLIYRVSNRFPGVPDRFSGSGSGTDFTLKISRVEAEDVGVYFCSQSTHVPYTFGGGTKVEIK ?
180
